protocol.summary: Acrylamide quenching of Trp fluorescence (Stern-Volmer constant)
Format: physicochemical
Design: unit not given here
protocol.conditions: acrylamide titration (aliquots of 4 M acrylamide), 25 °C, three separate trials
Where no end group is shown, it is not given here.
test.readout: Ksv (Stern-Volmer constant) in buffer

substance	test.readout	result.value
KWAKKWKWFAKAAWKWYKK-NH2 [gp41w-KA]	Ksv (Stern-Volmer constant) in buffer	16.4
KWASLWNWFNITNWLWYIK-NH2 [gp41w]	Ksv (Stern-Volmer constant) in buffer	10.3
KWARLWRWFRITRWLWYIK-NH2 [gp41w-4R]	Ksv (Stern-Volmer constant) in buffer	27.8
KFAKKFKWFAKAAFKFFKK-NH2 [gp41w-FKA]	Ksv (Stern-Volmer constant) in buffer	17.9
